System: ATP;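 also: ATP exposure 15 min at 22 °C before imaging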
Assay: switch fluorescence ratio, 500 uM ATP over buffer (Cy3 cluster intensity, sum of 5 cycles each) (fold (ratio)); higher = stronger signal-on switching upon ATP binding; sequences stand for … in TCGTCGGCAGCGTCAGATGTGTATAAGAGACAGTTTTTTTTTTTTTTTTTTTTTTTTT…TC
Conditions: aptamer strand: ATP DNA aptamer (quencher-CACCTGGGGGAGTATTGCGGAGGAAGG + anchor), 100 nM annealed; ATP concentration: 500 uM
Quick rule for you: switch fluorescence ratio at 1 or higher means Fulfilled, lower means Not fulfilled.

- AGGAATCTAG: Not fulfilled
- ATGATGACGA: Fulfilled
- TTTGGTGGTT: Fulfilled
- TTTATTCGCG: Fulfilled
- AATAAAATTT: Fulfilled
- AATATTAGCC: Not fulfilled
- CCCGGGGGCT: Fulfilled
- TTCTAGTTAC: Fulfilled
- GGAAACAGGG: Not fulfilled
- GGCACCTTAT: Fulfilled
